Can you tell me IC50 for the items I'm about to list?
- TARGET_DESC: muFAP (Mus musculus, UniProt P97321)
- Sequence (P97321 whole entry): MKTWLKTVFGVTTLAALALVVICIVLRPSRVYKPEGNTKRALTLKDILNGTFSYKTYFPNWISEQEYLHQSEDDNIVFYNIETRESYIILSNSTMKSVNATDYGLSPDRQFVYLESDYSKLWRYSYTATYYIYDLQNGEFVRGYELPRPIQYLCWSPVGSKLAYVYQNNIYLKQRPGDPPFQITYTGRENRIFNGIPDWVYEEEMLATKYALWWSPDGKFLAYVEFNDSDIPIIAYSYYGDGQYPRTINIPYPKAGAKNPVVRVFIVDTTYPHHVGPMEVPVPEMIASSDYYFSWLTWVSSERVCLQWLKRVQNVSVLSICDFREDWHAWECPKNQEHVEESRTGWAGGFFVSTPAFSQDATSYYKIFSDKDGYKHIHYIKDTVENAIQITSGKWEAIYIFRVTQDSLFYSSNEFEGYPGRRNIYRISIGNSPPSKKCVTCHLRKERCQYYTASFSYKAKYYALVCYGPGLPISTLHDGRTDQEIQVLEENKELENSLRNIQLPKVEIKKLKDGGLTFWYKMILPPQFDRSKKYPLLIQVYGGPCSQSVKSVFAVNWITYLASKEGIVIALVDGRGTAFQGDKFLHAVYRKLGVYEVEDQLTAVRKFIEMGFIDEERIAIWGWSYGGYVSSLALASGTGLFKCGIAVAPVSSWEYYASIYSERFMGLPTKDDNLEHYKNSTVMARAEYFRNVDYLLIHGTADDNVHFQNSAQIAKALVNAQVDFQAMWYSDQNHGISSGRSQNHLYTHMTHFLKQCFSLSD
- MEASUREMENT_DESCRIPTION: Recombinant enzymatic inhibition assay, muFAP (Z-Gly-Pro-AMC)
- Type: biochemical, murine
- STUDY_CONDITIONS: n = 3, picture: nM ± 95% CI
Unit nM implied. Number only.

IN: Quick check: IC50 of CN1/C(=C/C=C/C=C/C2=[N+](CCCCCC(=O)NCCCOc3cccc4c(C(=O)NCC(=O)N5CC(F)(F)C[C@H]5C#N)ccnc34)c3ccc(S(=O)(=O)[O-])cc3C2(C)C)C(C)(C)c2cc(S(=O)(=O)O)ccc21 ?
OUT: 4.56

IN: Moving on to N#C[C@@H]1CC(F)(F)CN1C(=O)CNC(=O)c1ccnc2c(OCCCNC(=O)CN3CCN(CC(=O)O)CCN(CC(=O)O)CCN(CC(=O)O)CC3)cccc12
OUT: 0.58

IN: Same thing, different compound: CN(CCCN1CCN(C(=O)CN2CCN(CC(=O)O)CCN(CC(=O)O)CCN(CC(=O)O)CC2)CC1)c1ccc2nccc(C(=O)NCC(=O)N3CC(F)(F)C[C@H]3C#N)c2c1 [FAPI-46, reference compound]
OUT: 1.55

###

- TARGET_DESC: huFAP (HT1080-huFAP cells) (Homo sapiens, UniProt Q12884)
- Construct: expressed in transfected cells; host or cells: HT1080 (human sarcoma), stably transduced; provided by Prof; Dr. Uwe Haberkorn, University of Heidelberg
- MEASUREMENT_DESCRIPTION: [^111In]In-FAPI-46 displacement assay on FAP-expressing cells
- Assay type: binding
- STUDY_CONDITIONS: 10^-9 M [^111In]In-FAPI-46, 45 min, n = 3, picture: nM ± 95% CI
Record form. Attribute: IC50. Fill in for each entry.
The response must be a number in nM with no trailing unit.

IN: Lab request: please report IC50 under test system huFAP (HT1080-huFAP cells) (Homo sapiens, UniProt Q12884) for CN1/C(=C/C=C/C=C/C2=[N+](CCCCCC(=O)NCCCOc3cccc4c(C(=O)NCC(=O)N5CC(F)(F)C[C@H]5C#N)ccnc34)c3ccc(S(=O)(=O)[O-])cc3C2(C)C)C(C)(C)c2cc(S(=O)(=O)O)ccc21
OUT: 1

IN: Follow-up entry: N#C[C@@H]1CC(F)(F)CN1C(=O)CNC(=O)c1ccnc2c(OCCCNC(=O)CN3CCN(CC(=O)O)CCN(CC(=O)O)CCN(CC(=O)O)CC3)cccc12
OUT: 0.62

IN: And for CN(CCCN1CCN(C(=O)CN2CCN(CC(=O)O)CCN(CC(=O)O)CCN(CC(=O)O)CC2)CC1)c1ccc2nccc(C(=O)NCC(=O)N3CC(F)(F)C[C@H]3C#N)c2c1 [FAPI-46, reference compound] ?
OUT: 1.42

###

- TARGET_DESC: huFAP (Homo sapiens, UniProt Q12884)
- Sequence (Q12884 1-760): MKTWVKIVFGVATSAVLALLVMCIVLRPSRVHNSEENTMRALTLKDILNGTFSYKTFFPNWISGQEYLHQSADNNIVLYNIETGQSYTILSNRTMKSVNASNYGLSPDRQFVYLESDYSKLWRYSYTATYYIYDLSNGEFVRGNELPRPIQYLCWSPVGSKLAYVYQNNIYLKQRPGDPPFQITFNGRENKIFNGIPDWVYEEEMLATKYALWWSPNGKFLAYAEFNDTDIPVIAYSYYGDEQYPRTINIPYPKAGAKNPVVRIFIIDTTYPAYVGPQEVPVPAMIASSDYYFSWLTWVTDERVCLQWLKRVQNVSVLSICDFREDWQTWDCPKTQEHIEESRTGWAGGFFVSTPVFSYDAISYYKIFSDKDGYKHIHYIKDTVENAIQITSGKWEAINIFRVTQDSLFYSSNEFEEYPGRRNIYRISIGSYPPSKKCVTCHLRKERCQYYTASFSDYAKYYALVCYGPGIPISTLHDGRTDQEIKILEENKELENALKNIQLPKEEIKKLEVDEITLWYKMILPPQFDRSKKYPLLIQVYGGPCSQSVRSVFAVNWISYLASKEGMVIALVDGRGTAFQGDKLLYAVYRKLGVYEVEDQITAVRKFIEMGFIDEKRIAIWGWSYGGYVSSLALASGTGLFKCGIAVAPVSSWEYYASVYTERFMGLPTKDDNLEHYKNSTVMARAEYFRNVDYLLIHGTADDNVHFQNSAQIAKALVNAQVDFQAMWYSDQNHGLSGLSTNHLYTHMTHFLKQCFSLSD
- MEASUREMENT_DESCRIPTION: Recombinant enzymatic inhibition assay, huFAP (Z-Gly-Pro-AMC)
- Assay type: biochemical
- STUDY_CONDITIONS: n = 3, picture: nM ± 95% CI
VALUE_KIND: IC50
Quick note: number first, unit second.

IN: Which value of IC50 has been reported for N#C[C@@H]1CC(F)(F)CN1C(=O)CNC(=O)c1ccnc2c(OCCCNC(=O)CN3CCN(CC(=O)O)CCN(CC(=O)O)CCN(CC(=O)O)CC3)cccc12 in the records?
OUT: 1.16 nM

IN: One more compound: CN1/C(=C/C=C/C=C/C2=[N+](CCCCCC(=O)NCCCOc3cccc4c(C(=O)NCC(=O)N5CC(F)(F)C[C@H]5C#N)ccnc34)c3ccc(S(=O)(=O)[O-])cc3C2(C)C)C(C)(C)c2cc(S(=O)(=O)O)ccc21
OUT: 4.23 nM

IN: Record: CN(CCCN1CCN(C(=O)CN2CCN(CC(=O)O)CCN(CC(=O)O)CCN(CC(=O)O)CC2)CC1)c1ccc2nccc(C(=O)NCC(=O)N3CC(F)(F)C[C@H]3C#N)c2c1 [FAPI-46, reference compound]
OUT: 3.87 nM
